List of % Inhibition of ETA at 1 μM values.
molecular target: ETA Receptor (Rattus norvegicus); construct: endogenous in cells; host or cells: MMQ rat pituitary cells (membranes); experiment: [125I]ET-1 binding to membranes from MMQ cells (ETA receptor binding assay, Table 4); details: test compound at 1 μM; 0.1 nM [125I]ET-1, MMQ cell membranes, 4 hours at 25° C.
Sequence (P26684 21-426): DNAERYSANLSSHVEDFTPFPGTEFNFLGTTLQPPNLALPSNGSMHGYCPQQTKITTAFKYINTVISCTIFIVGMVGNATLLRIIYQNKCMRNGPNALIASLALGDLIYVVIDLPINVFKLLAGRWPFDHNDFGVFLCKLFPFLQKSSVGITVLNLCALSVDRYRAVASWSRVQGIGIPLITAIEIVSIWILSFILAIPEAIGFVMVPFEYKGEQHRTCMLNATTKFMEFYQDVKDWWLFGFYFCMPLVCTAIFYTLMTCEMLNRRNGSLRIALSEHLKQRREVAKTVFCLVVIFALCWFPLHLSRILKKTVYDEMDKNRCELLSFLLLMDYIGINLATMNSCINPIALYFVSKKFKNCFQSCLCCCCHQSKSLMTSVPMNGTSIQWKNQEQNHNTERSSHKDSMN
Just so you know, I need the unit written after the number.

[[record]]
compound = "CCCN(CCC)C(=O)CN1CC(c2ccc3c(c2)OCO3)C(C(=O)O)C1c1ccc(OC)cc1 (stereo not shown)"
study_target = "ETA Receptor (Rattus norvegicus)"
observed = "95.1%"

[[record]]
compound = "CCCCCS(=O)(=O)N(CCC)CCN1CC(c2ccc3c(c2)OCO3)C(C(=O)O)C1c1ccc(OC)cc1 (stereo not shown)"
study_target = "ETA Receptor (Rattus norvegicus)"
observed = "90.4%"

[[record]]
compound = "COCCOCCN1CC(c2ccc(OC)cc2)C(C(=O)O)C1c1ccc2c(c1)OCO2 (stereo not shown)"
study_target = "ETA Receptor (Rattus norvegicus)"
observed = "83.0%"

[[record]]
compound = "CCCCN(CCCC)C(=O)CN1CC(c2ccc3c(c2)OCO3)C(C(=O)O)C1c1cccc(F)c1 (stereo not shown)"
study_target = "ETA Receptor (Rattus norvegicus)"
observed = "94.4%"

[[record]]
compound = "CCCCN(CCCC)C(=O)CN1CC(c2ccc3c(c2)CCO3)C(C(=O)O)C1c1ccc(OC)cc1 (stereo not shown)"
study_target = "ETA Receptor (Rattus norvegicus)"
observed = "94.7%"

[[record]]
compound = "CCCCN(CCCC)C(=O)CN1CC(c2ccc3c(c2)OCO3)C(C(=O)O)C1[C@H]1CC[C@H](OC)CC1 (stereo partly shown)"
study_target = "ETA Receptor (Rattus norvegicus)"
observed = "93.6%"

[[record]]
compound = "CCCN(CCN1CC(c2ccc3c(c2)OCO3)C(C(=O)O)C1c1ccc(OC)cc1)C(=O)OC(C)(C)C (stereo not shown)"
study_target = "ETA Receptor (Rattus norvegicus)"
observed = "88.2%"

[[record]]
compound = "CCCCN(CCCC)C(=O)CN1CC(c2ccc3c(c2)CCO3)C(C(=O)O)C1c1ccccc1 (stereo not shown)"
study_target = "ETA Receptor (Rattus norvegicus)"
observed = "97.1%"


Identify % Inhibition of ETA at 1 μM associated with the compound COc1ccc(C2C(C(=O)O)C(c3ccc4c(c3)OCO4)CN2CC(=O)NCC(C)C)cc1 (stereo not shown)
97.3%

Identify % Inhibition of ETA at 1 μM associated with the compound CCCCCCCS(=O)(=O)N(CCC)CCN1CC(c2ccc3c(c2)OCO3)C(C(=O)O)C1c1ccc(OC)cc1 (stereo not shown)
89.7%

Identify % Inhibition of ETA at 1 μM associated with the compound CCCCN(CCCC)C(=O)CN1CC(c2ccc3ccoc3c2)C(C(=O)O)C1c1ccc(OC)cc1 (stereo not shown)
106.3%

---

List of pIC50 values.
target: human ETA receptor (Homo sapiens); construct: expressed in transfected cells; host or cells: CHO cells, permanently transfected; experiment: ETA/ETB selectivity: (125I)ET-1 competition binding, CHO cells transfected with human ETA receptor (hET-A); conditions: CHO cells transfected with human ETA receptor; 0.1 nM (125I)ET-1; read-out: hET-A IC50
Sequence (P25101 21-427): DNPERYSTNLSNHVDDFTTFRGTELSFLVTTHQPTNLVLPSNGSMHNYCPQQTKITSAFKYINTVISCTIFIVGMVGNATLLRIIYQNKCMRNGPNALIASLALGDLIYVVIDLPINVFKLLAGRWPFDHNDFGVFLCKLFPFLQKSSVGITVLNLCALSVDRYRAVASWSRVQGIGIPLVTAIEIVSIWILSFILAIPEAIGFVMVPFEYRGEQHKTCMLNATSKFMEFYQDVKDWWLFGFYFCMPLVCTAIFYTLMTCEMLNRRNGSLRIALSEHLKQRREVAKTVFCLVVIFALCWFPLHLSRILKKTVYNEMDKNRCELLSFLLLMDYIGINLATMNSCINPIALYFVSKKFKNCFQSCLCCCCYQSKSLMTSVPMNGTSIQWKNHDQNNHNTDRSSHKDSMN
The scale used: pIC50 is minus the common logarithm of the concentration in molar units.

Use these answered entries as a reference point.
[[record]]
molecule = "CCCCN(CCCC)C(=O)CN1CC(c2ccc3c(c2)OCO3)C(C(=O)O)C1COc1ccccc1OC (stereo not shown) [compound 510]"
quantity_kind = "pIC50"
observed = 9.00

[[record]]
molecule = "CCCCN(CCCO)C(=O)CN1CC(c2ccc3c(c2)OCO3)C(C(=O)O)C1c1ccc(OC)cc1 (stereo not shown) [compound 523]"
quantity_kind = "pIC50"
observed = 9.48

[[record]]
molecule = "CCCCN(CCCC)C(=O)CN1CC(c2ccc3c(c2)OCO3)C(C(=O)O)C1CCC1OCCO1 (stereo not shown) [compound 504]"
quantity_kind = "pIC50"
observed = 8.34


Identify pIC50 associated with the molecule CCCCN(C(=O)CN1CC(c2ccc3c(c2)OCO3)C(C(=O)O)C1c1ccc(OC)cc1)c1cccnc1 (stereo not shown) [compound 531]
9.15

Identify pIC50 associated with the molecule CCCCN(CCCC)C(=O)CN1CC(c2ccc3c(c2)OCO3)C(C(=O)O)C1CC(C)(C)CCC (stereo not shown) [compound 503]
9.04

Identify pIC50 associated with the molecule CCCCN(CCCC)C(=O)CN1CC(c2ccc3c(c2)OCO3)C(C(=O)O)C1CC(C)(C)C=C(C)C (stereo not shown) [compound 506]
8.52

Identify pIC50 associated with the molecule CCCCN(CCCC)C(=O)CN1CC(c2ccc3c(c2)OCO3)C(C(=O)O)C1CCc1ccccc1OC (stereo not shown) [compound 517]
9.37
